Target: Lck (Homo sapiens (Human), UniProt P06239)
Sequence (P06239 whole entry, species assumed): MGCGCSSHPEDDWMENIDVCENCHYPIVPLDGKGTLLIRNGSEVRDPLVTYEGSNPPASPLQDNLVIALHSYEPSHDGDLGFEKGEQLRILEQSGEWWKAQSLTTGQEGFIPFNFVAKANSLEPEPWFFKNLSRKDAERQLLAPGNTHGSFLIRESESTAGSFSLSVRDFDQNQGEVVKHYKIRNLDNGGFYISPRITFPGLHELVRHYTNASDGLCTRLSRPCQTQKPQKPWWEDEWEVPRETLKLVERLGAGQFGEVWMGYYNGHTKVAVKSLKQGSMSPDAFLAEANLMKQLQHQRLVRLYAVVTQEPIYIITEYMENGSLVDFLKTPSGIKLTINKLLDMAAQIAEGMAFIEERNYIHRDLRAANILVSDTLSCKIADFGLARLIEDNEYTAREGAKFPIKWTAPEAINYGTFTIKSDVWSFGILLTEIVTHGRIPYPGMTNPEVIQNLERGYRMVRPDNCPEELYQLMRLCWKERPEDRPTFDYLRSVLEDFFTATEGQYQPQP

>  <molecule_smiles>
CC(C)n1nc(-c2ccc(F)c3[nH]ncc23)c2c(N)nc(Nc3ccc(S(C)(=O)=O)cc3F)nc21

>  <IC50>
2.5 µM

$$$$

Data credit: patent US11512087B2
